Tested on: K-562 leukemia
Test: NCI tumour cell line growth inhibition, 48 h; in the data active means GI50 below about 0.43 µM; inactive means the rest
Choose one outcome from this list and give only that: active, inactive

Solved cases (2 shown):
MOLECULE	CLASS_ASSIGNMENT
COc1ccc(-c2cc3c4c(nc5ccccc5c4c2)CC(c2cc(OC)c(OC)c(OC)c2)O3)cc1 (stereo not drawn)	inactive
COc1ccc2c(c1)O/C(=C\c1cccc(OCC(=O)Nc3nc4ccccc4s3)c1)C2=O	inactive

Per the assay record, what outcome was assigned to CC1(C)CCC(S(=O)(=O)c2ccc3c(c2)/C(=N\O)c2cc(S(=O)(=O)N4CCC(O)(c5cccc(C(F)(F)F)c5)CC4)ccc2-3)CC1 ?
active

Per the assay record, what outcome was assigned to O=C(Cn1ccnc1[N+](=O)[O-])N(CCO)CCO ?
inactive

Per the assay record, what outcome was assigned to Cc1nc2sc(C(=O)Nc3cccc4ccccc34)c(N)c2cc1C(C)O (stereo not drawn) ?
active

Per the assay record, what outcome was assigned to CCCOC(=O)N[C@H]1CCc2c(Br)c(OC)c(OC)c(OC)c2-c2ccc(SC)c(=O)cc21 ?
active

Per the assay record, what outcome was assigned to O=S(=O)(Nc1ccc(-c2nc(-c3cccc(OCCN4CCOCC4)c3)c(-c3ccnc(Br)c3)[nH]2)cc1)c1ccccc1 ?
inactive

Per the assay record, what outcome was assigned to O=C1OCC(c2ccc(O)c(O)c2)=C1c1cc(O)c(O)c(O)c1 ?
inactive

----------
Tested on: UACC-257 melanoma
Experiment: NCI tumour cell line growth inhibition, 48 h; in the data active = GI50 below about 0.43 µM; inactive = the rest
Choose one outcome from this list and give only that: true (active), false (inactive)

MOLECULE	CLASS_ASSIGNMENT
OCC1SC(n2cnc3cncnc32)C(O)C1O (stereo unspecified)	false
OCC(O)CC[CH2][Sn]([c]1ccccc1)([c]1ccccc1)[c]1ccccc1 (stereo unspecified)	false

Per the assay record, what outcome was assigned to C=C1C(=O)O[C@H]2[C@H]1CC/C(COC(=O)OCCCCCOC(=O)OC/C1=C/CC[C@@]3(C)O[C@H]3[C@H]3OC(=O)C(=C)[C@@H]3CC1)=C\CC[C@@]1(C)O[C@@H]21 ?
false

Per the assay record, what outcome was assigned to COc1ccc(-c2cc3c4c(nc5ccccc5c4c2)CC(c2cc(OC)c(OC)c(OC)c2)O3)cc1 (stereo unspecified) ?
false

Per the assay record, what outcome was assigned to COC1=CC(c2ccc[nH]2)=N/C1=C\c1[nH]c(C)c(C(=O)CCC(=O)Oc2ccc3c(c2)CCC2C3CC[C@]3(C)C(=O)CC[C@@H]23)c1C (stereo partly specified) ?
false

Per the assay record, what outcome was assigned to C[C@@H]1O[C@@H](O[C@H]2C[C@@H](O)[C@]3(CO)C4C(CC[C@]3(O)C2)[C@@]2(O)CC[C@H](C3=CC(=O)OC3)[C@@]2(C)C[C@H]4O)[C@H](O)[C@H](O)[C@H]1O (stereo partly specified) ?
true

Per the assay record, what outcome was assigned to O=C(CC12CC3CC(CC(C3)C1)C2)NCCOCCOCCNC(=O)c1cc2c(o1)C(=O)c1ccccc1C2=O ?
false

Per the assay record, what outcome was assigned to Nc1ccccc1C#C/C=C\C#Cc1ccc(F)cc1F ?
false

Per the assay record, what outcome was assigned to Cc1ccc(S(=O)(=O)N(C)C)cc1[N+](=O)[O-] ?
false

Per the assay record, what outcome was assigned to C=CC1CC12C(=O)C1OC2(C)C2C(=O)c3ccccc3C(=O)C12 (stereo unspecified) ?
false

Per the assay record, what outcome was assigned to COc1ccc(-c2nc(-c3nc4ccc(F)cc4[nH]3)cc3c2[nH]c2ccccc23)cc1 ?
false

Per the assay record, what outcome was assigned to CCC(=O)Sc1ccccc1C(=O)Nc1ccc(Cl)cc1 ?
false

Per the assay record, what outcome was assigned to [Cu+2].[Cu+2].[O-]c1ccccc1C=Nc1ccccc1[O-].[O-]c1ccccc1C=Nc1ccccc1[O-] ?
false

Per the assay record, what outcome was assigned to CCOc1ccc(NC(=O)Nc2cc(C(C)C)ccc2C)cc1 ?
false

Per the assay record, what outcome was assigned to CCCC[C@@H]1NC(=O)[C@H](CCCCN)NC(=O)[C@H](CCCNC(=N)N)NC(=O)[C@H](CC(C)C)NC(=O)[C@@H](NC(=O)[C@H](Cc2cccc(Cl)c2)NC(=O)[C@@H]2CCCN2C(=O)[C@@H](NC(C)=O)C(C)C)CCSSC[C@@H](C(=O)N[C@@H](CCCCN)C(=O)N2CCC[C@H]2C(=O)N2CCC[C@H]2C(=O)N[C@@H](CCC(=O)O)C(N)=O)NC(=O)[C@H](Cc2ccccc2)NC(=O)[C@H](CO)NC(=O)[C@H](C)NC(=O)[C@@H]2CCCN2C1=O ?
false

Per the assay record, what outcome was assigned to COc1ccc(-c2cc3cccc(OC)c3c(=O)o2)cc1OC ?
false

----------
Property: TGI; scope: individual compounds
Test system: U251 CNS
Experiment: NCI tumour cell line growth inhibition, 48 h
Where a SMILES comes first, the peptide text is derived from it. [ ]: non-standard residue; d: D form. The star is where a group is joined. ξ: configuration not given here. X16 = COC1=CC(=O)N(C(=O)C(O*)C(C)C)C1Cc1ccccc1; ξNMe2Val = CC(C)C(C(=O)*)N(C)C; NMeV = CN[CH](C(=O)O)C(C)C

COMPOUND	MEASURED_TARGET	RESULT
CCCCOC1CC2(c3ccc(OC)cc3)C(=O)c3ccccc3N2O1 (centres undefined)	U251 CNS	> 10 µM
COC1=CC(=O)N(C(=O)C(OC(=O)C2CCCN2C(=O)C2CCCN2C(=O)C(C(C)C)N(C)C(=O)C(NC(=O)C(C(C)C)N(C)C)C(C)C)C(C)C)C1Cc1ccccc1 (centres undefined) (ξNMe2Val-V[NMeV]PP-X16; configuration not given here)	U251 CNS	0.0109 µM
CCOC(=O)C1(Cc2ccc(C)cc2)Cc2ccc(C)cc2C1=O (centres undefined)	U251 CNS	35.6 µM
Cc1ccc(OP2(=O)Oc3ccc4ccccc4c3CN2c2ccc(Cl)cc2)cc1C (centres undefined)	U251 CNS	> 100 µM
O=C(/C=C/c1ccc(OCCCCCCCCCCOc2ccc(/C=C/C(=O)c3ccc(Cl)cc3)cc2)cc1)c1ccc(Cl)cc1	U251 CNS	> 100 µM

Would you kindly share the measured TGI for c1cc(-c2cscc2-c2ccsc2)cs1 ?
> 100 µM

Would you kindly share the measured TGI for CN(C(=O)c1ccc(F)cc1C(F)(F)F)C1CCN(c2nnc(-c3ccnn3C)c3ccccc23)CC1 ?
> 100 µM

Would you kindly share the measured TGI for COCCNCC(O)Cn1c2ccc(Cl)cc2c2cc(Cl)ccc21 (centres undefined) ?
3.93 µM

Would you kindly share the measured TGI for COc1ccc(-c2cc3cccc(OC)c3c(=O)o2)cc1OC ?
> 100 µM

----------
Property: TGI; scope: individual molecules
Tested on: SK-MEL-28 melanoma
Experiment: NCI tumour cell line growth inhibition, 48 h
Where a SMILES comes first, the peptide text is derived from it. [ ]: non-standard residue; d: D form. The star is where a group is joined. hSer = N[CH](CCO)C(=O)O; Boc = CC(C)(C)OC(=O)*

MOLECULE	TGI
CC1(C)CCC(S(=O)(=O)c2ccc3c(c2)/C(=N\O)c2cc(S(=O)(=O)N4CCC(O)(c5cccc(C(F)(F)F)c5)CC4)ccc2-3)CC1	0.446 µM
COCCC(NC(=O)C(CC(C)C)NC(=O)OC(C)(C)C)C(N)=O (stereo not drawn) (Boc-Leu-[hSer](Me)-NH2; configuration not given here)	> 100 µM

Lab note: next molecule to report on.
Would you kindly share the measured TGI for COc1ccc(C2SCC(=O)N2N=C2NC(=O)CC(=O)N2)cc1 (stereo not drawn) ?
> 100 µM

----------
Property: TGI; scope: individual compounds
System: SF-268 CNS
Assay: NCI tumour cell line growth inhibition, 48 h

COMPOUND	MEASURED_TARGET	QUANTITY_MEASURED	RESULT
O=S(=O)(Nc1ccc(-c2nc(-c3cccc(OCCN4CCOCC4)c3)c(-c3ccnc(Br)c3)[nH]2)cc1)c1ccccc1	SF-268 CNS	TGI	> 100 µM
O=C(Cc1ccccc1)Oc1ccc2c(-c3ccccc3)c(C(=O)Nc3ccc(Cl)cc3)c(=O)oc2c1	SF-268 CNS	TGI	> 100 µM
CCN(CC)c1ccc(NC(C(=O)c2ccccc2)c2ccccc2)cc1 (stereo not given)	SF-268 CNS	TGI	17.4 µM
O=S(=O)(O)c1ccc(NN(c2c(O)ccc3ccccc23)S(=O)(=O)O)cc1	SF-268 CNS	TGI	> 100 µM

Lab note: next compound to report on.
Would you kindly share the measured TGI for On1c(-c2ccccc2)c(-c2c(-c3ccccc3)n(O)c3ccccc23)c2ccccc21 ?
> 100 µM

----------
System: NCI-H226 lung
Assay: NCI tumour cell line growth inhibition, 48 h
Property: TGI; scope: individual molecules

MOLECULE	TGI
CO/C(=N\N=C(/C)C(F)(F)F)c1ccncc1	> 100 µM
Cc1ccc(S(=O)(=O)N(C)C)cc1[N+](=O)[O-]	> 100 µM
COC1/C=C\C=C(/C)C(=O)NC2=CC(=O)C(NCCCl)=C(CC(C)CC(OC)C(O)C(C)/C=C(/C)C1OC(N)=O)C2=O (stereo not given)	8.62 µM
CC(C)C1CN1CC(O)Cn1ccnc1[N+](=O)[O-] (stereo not given)	> 100 µM

Lab note: next molecule to report on.
Would you kindly share the measured TGI for O=S(=O)(O)c1ccc(NN(c2c(O)ccc3ccccc23)S(=O)(=O)O)cc1 ?
> 100 µM
